Target: olfactomedin domain of human myocilin (myoc-OLF) (Homo sapiens)
Sequence (Q99972 244-503 limits assumed): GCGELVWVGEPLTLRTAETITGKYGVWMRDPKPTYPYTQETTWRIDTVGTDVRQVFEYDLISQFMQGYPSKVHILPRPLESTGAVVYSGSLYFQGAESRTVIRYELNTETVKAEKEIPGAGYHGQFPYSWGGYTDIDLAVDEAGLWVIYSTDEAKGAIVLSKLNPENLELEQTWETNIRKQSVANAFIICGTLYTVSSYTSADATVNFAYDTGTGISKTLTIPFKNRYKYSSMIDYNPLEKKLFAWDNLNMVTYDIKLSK
Quantity Name: Kd (µM)

[[record]]
chemical_smiles = "Cc1cc(N(CCCl)CCCl)ccc1/C=N/NC(=O)Cc1cc(=O)oc2cc(O)ccc12"
measured_target = "olfactomedin domain of human myocilin (myoc-OLF) (Homo sapiens)"
quantitative_readout = 2


====

target: olfactomedin domain of human myocilin (myoc-OLF) (Homo sapiens, UniProt Q99972); assay: Thermal shift assay by differential scanning fluorimetry; type: binding; settings: initial round of screening; DSF, 5 μM protein; protein alone Tm 49.83
Quantity Name: Tm

[[record]]
chemical_smiles = "Nc1nc(N)c(/N=N/c2ccc(C(=O)O)cc2)c(N)n1"
result = "51.61 °C"

[[record]]
chemical_smiles = "O=C(Cn1ccc(=O)[nH]c1=O)Nc1ccc(C(=O)O)c(O)c1"
result = "51.49 °C"

[[record]]
chemical_smiles = "COc1cc(C(=O)C(=O)c2ccc(O)c(OC)c2)ccc1O"
result = "50.74 °C"

[[record]]
chemical_smiles = "O=C1c2ccccc2C(=O)C1C(c1ccc([N+](=O)[O-])cc1)C1C(=O)c2ccccc2C1=O"
result = "51.85 °C"

[[record]]
chemical_smiles = "CN(C)c1ccc(/C=C/C(=O)c2cc(Cl)ccc2O)cc1"
result = "51.33 °C"

[[record]]
chemical_smiles = "O=C(/C=C/c1ccc(O)c(O)c1)c1ccccc1O"
result = "66.27 °C"

[[record]]
chemical_smiles = "Cc1cc(N(CCCl)CCCl)ccc1/C=N/NC(=O)Cc1cc(=O)oc2cc(O)ccc12"
result = "51.43 °C"

